- ASSAY SYSTEM: hKv1.5 potassium channel (Homo sapiens)
- Sequence (P22460 whole entry): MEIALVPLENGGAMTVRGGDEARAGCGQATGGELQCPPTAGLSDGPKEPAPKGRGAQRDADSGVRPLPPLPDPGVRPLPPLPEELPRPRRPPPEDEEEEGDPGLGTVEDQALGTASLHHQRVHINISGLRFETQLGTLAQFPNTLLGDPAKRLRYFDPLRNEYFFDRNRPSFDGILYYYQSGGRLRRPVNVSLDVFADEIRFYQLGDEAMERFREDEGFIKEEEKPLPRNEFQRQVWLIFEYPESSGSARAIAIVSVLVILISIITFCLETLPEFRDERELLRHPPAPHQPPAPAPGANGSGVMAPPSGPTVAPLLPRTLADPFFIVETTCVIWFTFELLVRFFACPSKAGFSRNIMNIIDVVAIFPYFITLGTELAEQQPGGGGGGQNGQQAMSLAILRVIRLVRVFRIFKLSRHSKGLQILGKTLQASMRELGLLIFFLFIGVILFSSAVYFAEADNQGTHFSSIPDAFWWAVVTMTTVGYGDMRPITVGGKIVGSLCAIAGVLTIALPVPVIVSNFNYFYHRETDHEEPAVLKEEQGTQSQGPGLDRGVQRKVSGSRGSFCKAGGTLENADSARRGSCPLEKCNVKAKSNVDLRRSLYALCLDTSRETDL
- ASSAY NOTES: Whole-cell patch clamp assay on HEK 293 cells stably expressing hKv1.5
- STATED CONDITIONS: hKv1.5 IC50, whole-cell patch clamp, HEK 293 cells expressing hKv1.5, 25 °C, mean ± SD
VALUE KIND: IC50 (µM)
API: value field is a number in µM; no unit string.

Q: For the molecule Cl.Cl.c1ccc(CNC2CCN(Cc3nc4ccccc4o3)CC2)cc1 [DDO-02004] , give its reported IC50.
Result: 0.95

Q: For the molecule Fc1ccc(CNC2CCN(Cc3nc4ccccc4o3)CC2)cc1 [DDO-02006] , give its reported IC50.
Result: 3.24
